# Tested on: RPMI-8226 leukemia
# METHOD NOTES: NCI-60 one-dose screen, 48 h (100 = growth as untreated, 0 = no growth, -100 = all killed)
# STATED CONDITIONS: 10 µM unless noted
The panel holds about 83,000 compounds, 20% with a hit somewhere; the sample as a whole holds those more often. Active and inactive are the calls of the source. How the source made its calls: active means growth percent below 10; inactive means the rest.
MEASURED QUANTITY: growth

> print(dat)
                                    compound       target.system                  observed
 1  CC(C)(C)c1[nH]nc2c1C(c1cc3ccccc3[nH]c1=O)Nc1cc(C(=O)OCc3ccccc3)ccc1N2 (stereo not given)  RPMI-8226 leukemia          53.6% (inactive)
 2  Clc1cc(Cl)cc(Nc2ccc3c(OCCCN4CCOCC4)cccc3n2)c1  RPMI-8226 leukemia          11.1% (inactive)
 3  COc1cnc2c(c1)C(=O)c1c-2n(CCCNC(C)C)c(=O)c2cc([N+](=O)[O-])ccc12  RPMI-8226 leukemia           -25.1% (active)
 4  N#CC1=C(N)Oc2ccc3ccccc3c2C1c1ccccc1Cl (stereo not given)  RPMI-8226 leukemia          32.9% (inactive)
 5  COC(=O)[C@@H]1[C@H]2C[C@H]3c4[nH]c5cc(OC)ccc5c4CCN3C[C@@H]2C[C@H](OC(=O)/C=C/c2ccnc(OC)c2)[C@H]1OC  RPMI-8226 leukemia          69.6% (inactive)
 6  COc1cc(-c2cc3ncccc3c3nc(N)c4cccnc4c23)cc(OC)c1OC  RPMI-8226 leukemia          23.2% (inactive)
 7  C=C1C(=O)O[C@H]2[C@H]1CC/C(Cn1cc(-c3ccc(F)cc3)nn1)=C\CC[C@@]1(C)O[C@@H]21  RPMI-8226 leukemia           -34.1% (active)
 8  COc1cccc(-c2nn(-c3ccccc3)cc2-c2ccnc(NCCCNS(=O)(=O)c3ccc(Cl)cc3)c2)c1  RPMI-8226 leukemia          26.6% (inactive)
 9  COc1ccc2[nH]cc(-c3nc(-c4c[nH]c5ncccc45)cs3)c2c1  RPMI-8226 leukemia          40.9% (inactive)
10  Cc1ccccc1-c1nc(C(Cl)Cl)nc2cc(-c3ccccc3)nn12  RPMI-8226 leukemia          61.6% (inactive)
11      CC1(n2nnnc2N2CCCN(c3ncccc3N)CC2)CCC1  RPMI-8226 leukemia           104% (inactive)
12  O=C(NCN1C(=O)c2cccc3cccc(c23)C1=O)N1CCC(Cc2ccccc2)CC1  RPMI-8226 leukemia          87.8% (inactive)
13  C[C@@H](C(=O)O)c1ccc2c3cc(Cl)ccc3n(Cc3cc(=O)oc4ccc(Cl)cc34)c2c1  RPMI-8226 leukemia           109% (inactive)
14          CC(C)(C)c1nc(-c2ccc(O)c(O)c2)cs1  RPMI-8226 leukemia          39.2% (inactive)
15  Fc1ccc(Nc2ccc3c(OCCCN4CCOCC4)cccc3n2)cc1F  RPMI-8226 leukemia          41.3% (inactive)
16  O=C1CCC/C=C\C[C@H]2C=C(Cl)C(=O)/C2=C/C[C@H](CCCCC(F)(F)F)OC(=O)CCC/C=C\C[C@H]2C=C(Cl)C(=O)/C2=C/C[C@H](CCCCC(F)(F)F)O1  RPMI-8226 leukemia  -14.9% [7.5 µM] (active)
17  O=C(NO)c1ccc(Cn2c(=O)n(-c3ccccc3)c(=O)c3ccccc32)cc1  RPMI-8226 leukemia          14.8% (inactive)
18    COC(=O)c1cc(=O)nc(N/N=C/c2ccc(C)cc2)s1  RPMI-8226 leukemia          89.9% (inactive)
19  COc1ccc(C2NC(=O)Nc3ccccc32)c(OC)c1 (stereo not given)  RPMI-8226 leukemia           108% (inactive)
20                COc1ccc(/C=C/C(=O)NCCO)cc1  RPMI-8226 leukemia           105% (inactive)

Source of measurements: PubChem BioAssay (NCI)
